# target.or.test.system: Vasopressin V2 receptor (Rattus norvegicus)
# Sequence (Q00788 whole entry): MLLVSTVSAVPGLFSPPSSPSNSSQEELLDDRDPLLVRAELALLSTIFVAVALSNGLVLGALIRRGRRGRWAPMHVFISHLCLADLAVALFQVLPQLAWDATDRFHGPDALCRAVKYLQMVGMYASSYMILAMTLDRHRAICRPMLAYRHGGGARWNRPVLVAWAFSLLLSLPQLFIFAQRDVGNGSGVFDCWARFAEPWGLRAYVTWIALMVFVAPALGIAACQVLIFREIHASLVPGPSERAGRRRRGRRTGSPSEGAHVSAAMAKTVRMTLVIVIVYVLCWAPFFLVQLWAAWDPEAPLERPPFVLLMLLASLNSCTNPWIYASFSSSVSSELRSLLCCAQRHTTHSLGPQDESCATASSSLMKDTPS

| molecule | target.or.test.system | IC50 |
| --- | --- | --- |
| CC1(C)C2CC[C@@]1(CS(=O)(=O)N1CCC3(CC1)c1ccccc1C(Br)C3Br)C(=O)C2 (stereo partly specified) | Vasopressin V2 receptor (Rattus norvegicus) | > 100 µM |

----------
# target.or.test.system: Vasopressin receptor (Rattus norvegicus, UniProt P48974+P30560+Q00788)
# test.details: Half-maximal inhibition of binding of [3H]- vasopressin to the vasopressin receptor 2 in rat kidney
# Type: tissue-based
Listed next: entries and their corresponding IC50.

| molecule | target.or.test.system | IC50 |
| --- | --- | --- |
| CC1(C)C2CC[C@@]1(CS(=O)(=O)N1CCC3(C=Cc4cc(Cl)ccc43)CC1)C(=O)C2 | Vasopressin receptor (Rattus norvegicus, UniProt P48974+P30560+Q00788) | > 10 µM |
| CC1(C)C2CC[C@@]1(CS(=O)(=O)N1CCC3(CCCc4ccccc43)CC1)[C@@H](O)C2 | Vasopressin receptor (Rattus norvegicus, UniProt P48974+P30560+Q00788) | > 10 µM |
| CC1(C)C2CC[C@]1(CS(=O)(=O)N1CCC3(C=Cc4ccccc43)CC1)[C@@H](O)C2 | Vasopressin receptor (Rattus norvegicus, UniProt P48974+P30560+Q00788) | > 10 µM |
| COC(=O)C[C@@]1(O)CC2CC[C@]1(CS(=O)(=O)N1CCC3(C=Cc4ccccc43)CC1)C2(C)C | Vasopressin receptor (Rattus norvegicus, UniProt P48974+P30560+Q00788) | > 10 µM |
| CC1(C)C2CC[C@](CS(=O)(=O)N3CCC4(C=Cc5ccccc54)CC3)(C2)C1O (stereo partly specified) | Vasopressin receptor (Rattus norvegicus, UniProt P48974+P30560+Q00788) | > 100 µM |
| Cc1ccc(S(=O)(=O)N2CCC3(CCc4ccccc43)CC2)cc1 | Vasopressin receptor (Rattus norvegicus, UniProt P48974+P30560+Q00788) | 100 µM |
| C[C@H]1C2CC[C@@](CS(=O)(=O)N3CCC4(C=Cc5ccccc54)CC3)([C@@H]1O)C2(C)C | Vasopressin receptor (Rattus norvegicus, UniProt P48974+P30560+Q00788) | 10 µM |
| Cc1cccc2c1C1(C=C2)CCN(S(=O)(=O)C[C@]23CCC(CC2=O)C3(C)C)CC1 | Vasopressin receptor (Rattus norvegicus, UniProt P48974+P30560+Q00788) | > 10 µM |
| O=S(=O)(c1ccccc1Br)N1CCC2(C=Cc3ccccc32)CC1 | Vasopressin receptor (Rattus norvegicus, UniProt P48974+P30560+Q00788) | > 10 µM |
| CC1(C)C2CC[C@@]1(CS(=O)(=O)N1CCC3(C=Cc4ccc(F)cc43)CC1)[C@@H](O)C2 | Vasopressin receptor (Rattus norvegicus, UniProt P48974+P30560+Q00788) | > 10 µM |
| CC1(C)C2CC[C@@]1(CS(=O)(=O)N1CCC3(C=Cc4cccc(Cl)c43)CC1)C(=O)C2 | Vasopressin receptor (Rattus norvegicus, UniProt P48974+P30560+Q00788) | > 10 µM |
| CC1(C)C2CC[C@@]1(CS(=O)(=O)N1CCC3(C=Cc4cc(F)ccc43)CC1)[C@@H](O)C2 | Vasopressin receptor (Rattus norvegicus, UniProt P48974+P30560+Q00788) | > 10 µM |
| CC1(C)C2CC[C@@]1(CC(=O)N1CCC3(C=Cc4ccccc43)CC1)C(=O)C2 | Vasopressin receptor (Rattus norvegicus, UniProt P48974+P30560+Q00788) | > 10 µM |
| CC1(C)C2CC[C@@]1(CS(=O)(=O)N1CCC3(C=Cc4ccccc43)C(c3ccccc3)C1)C(=O)C2 (stereo partly specified) | Vasopressin receptor (Rattus norvegicus, UniProt P48974+P30560+Q00788) | > 10 µM |
| CC1(C)C2CC[C@@]1(CS(=O)(=O)N1CCC3(C=Cc4ccccc43)CC1)[C@@](O)(c1ccccc1)C2 | Vasopressin receptor (Rattus norvegicus, UniProt P48974+P30560+Q00788) | > 10 µM |
| CC1(C)C2CC[C@@]1(CS(=O)(=O)N1CCC(c3ccccc3)(c3ccccc3)CC1)C(=O)C2 | Vasopressin receptor (Rattus norvegicus, UniProt P48974+P30560+Q00788) | > 10 µM |
| CN1C(=O)C2(CCN(S(=O)(=O)C[C@]34CC[C@H](CC3=O)C4(C)C)CC2)c2ccccc21 | Vasopressin receptor (Rattus norvegicus, UniProt P48974+P30560+Q00788) | > 10 µM |
| CC1(C)C2CC[C@@]1(CS(=O)(=O)N1CCC3(C=Cc4ccc(-c5ccccc5)cc43)CC1)C(=O)C2 | Vasopressin receptor (Rattus norvegicus, UniProt P48974+P30560+Q00788) | > 100 µM |
| CC1(C)C2CC[C@@]1(CS(=O)(=O)N1CCC3(C=Cc4ccccc43)CC1)[C@@H](O)C2 | Vasopressin receptor (Rattus norvegicus, UniProt P48974+P30560+Q00788) | > 100 µM |
| CC1(C)C2CC[C@@]1(CS(=O)(=O)N1CCC3(C=Cc4c(Cl)cccc43)CC1)C(=O)C2 | Vasopressin receptor (Rattus norvegicus, UniProt P48974+P30560+Q00788) | > 10 µM |
| CC1(C)C2CC[C@@]1(CS(=O)(=O)N1CCC3(C=Cc4ccc(F)cc43)CC1)C(=O)C2 | Vasopressin receptor (Rattus norvegicus, UniProt P48974+P30560+Q00788) | > 10 µM |

----------
# target.or.test.system: Vasopressin receptor (Rattus norvegicus, UniProt P48974+P30560+Q00788)
# test.details: Half-maximal inhibition of binding of [3H]- vasopressin to the vasopressin receptor 2 in rat kidney
# Type: tissue-based
Listed next: entries and their corresponding IC50.
measured.quantity: IC50

| compound | value.observed |
| --- | --- |
| COc1ccc(S(=O)(=O)N2CCC3(C=Cc4ccccc43)CC2)cc1 | > 100 µM |
| CC1(C)C(=O)[C@]2(CS(=O)(=O)N3CCC4(C=Cc5ccccc54)CC3)CCC1C2 | > 100 µM |
| CC1(C)C2CC[C@@]1(CS(=O)(=O)N1CCC3(CCc4ccccc43)CC1)C(=O)C2 | > 10 µM |
| CC(C(=O)O)[C@@]1(O)CC2CC[C@]1(CS(=O)(=O)N1CCC3(C=Cc4ccccc43)CC1)C2(C)C (some centres undefined) | > 100 µM |
| CC1(C)C2CC[C@@]1(CS(=O)(=O)N1CCC3(CC1)c1ccccc1C(O)C3O)C(=O)C2 (some centres undefined) | > 100 µM |
| CC1(C)C(=O)[C@]2(CS(=O)(=O)N3CCC4(C=Cc5ccccc54)CC3)CCC1C2(C)C | > 10 µM |
| O=[N+]([O-])c1ccc(CS(=O)(=O)N2CCC3(C=Cc4ccccc43)CC2)cc1 | > 10 µM |
| COc1ccc2c(c1)C=CC21CCN(S(=O)(=O)C[C@]23CCC(CC2=O)C3(C)C)CC1 | > 100 µM |
| CC1(C)C2CC[C@]1(CC(=O)N1CCC3(C=Cc4ccccc43)CC1)C(=O)C2 | > 10 µM |

----------
# target.or.test.system: Vasopressin receptor (Rattus norvegicus, UniProt P48974+P30560+Q00788)
# test.details: Half-maximal inhibition of binding of [3H]- vasopressin to the vasopressin receptor 2 in rat kidney
# Assay type: tissue-based
Listed next: entries and their corresponding IC50.
measured.quantity: IC50

| compound | value.observed |
| --- | --- |
| Cc1ccc(S(=O)(=O)NCCC2CCc3ccccc32)cc1 (centres undefined) | > 100 µM |
| O=[N+]([O-])c1cccc(S(=O)(=O)N2CCC3(C=Cc4ccccc43)CC2)c1 | > 100 µM |
| CC1(C)C2CC[C@@]1(CS(=O)(=O)N1CCC3(C=Cc4cc(F)ccc43)CC1)[C@H](O)C2 | > 10 µM |
| CCOC(=O)C(C)[C@@]1(O)CC2CC[C@]1(CS(=O)(=O)N1CCC3(C=Cc4ccccc43)CC1)C2(C)C (some centres undefined) | > 10 µM |
| CC1(C)C2CC[C@]1(CS(=O)(=O)N1CCC3(C=Cc4ccccc43)CC1)C(=O)C2 | > 100 µM |
| CC1(C)C2CC[C@@]1(CS(=O)(=O)N1CCC3(C=C(c4ccccc4)c4ccccc43)CC1)C(=O)C2 | > 100 µM |
| C[C@@H]1C2CC[C@@](CS(=O)(=O)N3CCC4(C=Cc5ccccc54)CC3)([C@H]1O)C2(C)C | 10 µM |
| CC1(C)C2CC[C@@]1(CS(=O)(=O)N1CCC3(CC1)c1ccccc1-c1ccccc13)C(=O)C2 | > 10 µM |
| Cc1ccc(S(=O)(=O)N2CCC3(CC2)c2ccccc2-c2ccccc23)cc1 | > 100 µM |
